Reference source for all entries: ChEMBL document CHEMBL1201862

- System: SF-539
- TEST_METHOD_NOTES: NCI tumour cell line growth inhibition, 48 h
Calls of active or inactive are those of the source. Cut-off read from the data, not from the text of the source: active = GI50 up to about 1.1 µM and inactive = higher.
MEASURE: GI50

Q) Consider the compound Cc1ccc(NC(=O)CCC(CC(=O)C(C)(C)C)=NNC(=O)C(=O)NN)cc1C . State its measured GI50.
A) > 100 µM (inactive)

Q) Consider the compound Cc1ccc(C2(O)c3ccccc3C(=O)N(C)C2(O)c2ccc(C)cc2)cc1 (stereo unspecified) . State its measured GI50.
A) 45.1 µM (inactive)

Q) Consider the compound CC12ON(P(=O)(c3ccccc3)c3ccccc3)C(C)(c3ccccc31)c1ccccc12 . State its measured GI50.
A) > 100 µM (inactive)

Q) Consider the compound O=C1OC(=O)c2c1c(-c1ccccc1)cn2-c1ccc(Cl)cc1 . State its measured GI50.
A) > 100 µM (inactive)

Q) Consider the compound N[C@]1(C(=O)O)C[C@@H]2C(Br)=NO[C@@H]2C1 . State its measured GI50.
A) > 100 µM (inactive)

Q) Consider the compound COc1cc2c(cc1OCc1ccccc1)NC(=O)[C@@H]1CCCN1C2=O . State its measured GI50.
A) > 100 µM (inactive)

Q) Consider the compound Cc1ccc(OCC2OC(n3cnc4c(Br)nc(Br)nc43)CC2Oc2ccc(C)cc2)cc1 (stereo unspecified) . State its measured GI50.
A) 2.19 µM (inactive)

Q) Consider the compound O=C(/C=C/c1ccc(OCCSCCCCCCCCCCSCCOc2ccc(/C=C/C(=O)c3ccc(Cl)cc3)cc2)cc1)c1ccc(Cl)cc1 . State its measured GI50.
A) 45.6 µM (inactive)

Q) Consider the compound CCCCCCC1NN(C(C)=O)C(CCCCCC)NN1C(C)=O (stereo unspecified) . State its measured GI50.
A) > 100 µM (inactive)

Q) Consider the compound CN(C)CC1CCC/C(=C\c2ccc(OC(=O)c3ccc(Cl)cc3)cc2)C1=O (stereo unspecified) . State its measured GI50.
A) 3 µM (inactive)

Q) Consider the compound CSc1nc(NC2OC(COC(C)=O)C(OC(C)=O)C(OC(C)=O)C2OC(C)=O)c(/N=C(\C)C(C)=O)c(=O)n1C (stereo unspecified) . State its measured GI50.
A) > 100 µM (inactive)

---

- Test system: HOP-62
- TEST_METHOD_NOTES: NCI tumour cell line growth inhibition, 48 h
Activity calls are given as the source filed them. Rule as the data show it: active = GI50 up to about 1.1 µM and inactive = higher.
Parameter: GI50. Scope: all listed entries.

Examples with answers:
[
  {
    "COMPOUND": "OC1C2CCC3C2CC(C(O)(c2ccccc2)c2ccccc2)C13 (stereo unspecified)",
    "GI50": "63.2 µM (inactive)"
  },
  {
    "COMPOUND": "Cc1ccc(C)c2c1NC(=O)/C2=N\\Nc1ccccc1[N+](=O)[O-]",
    "GI50": "55.8 µM (inactive)"
  },
  {
    "COMPOUND": "CCCNc1ncnc2[nH]ncc12",
    "GI50": "> 100 µM (inactive)"
  },
  {
    "COMPOUND": "O=C1C(CN(Cc2ccccc2)Cc2ccccc2)CCCC1CN(Cc1ccccc1)Cc1ccccc1 (stereo unspecified)",
    "GI50": "> 62.1 µM (inactive)"
  },
  {
    "COMPOUND": "CNC(C)Cc1ccccc1O (stereo unspecified)",
    "GI50": "> 100 µM (inactive)"
  },
  {
    "COMPOUND": "Cc1c[nH]c(C(=O)O)c1-c1cccn1-c1ccc(Cl)cc1[N+](=O)[O-]",
    "GI50": "63.2 µM (inactive)"
  },
  {
    "COMPOUND": "CC/C=C/C[C@H](O)[C@H]1C[C@H]2O[C@H](CC(=O)OC)C[C@H]2O1",
    "GI50": "> 100 µM (inactive)"
  },
  {
    "COMPOUND": "Oc1cc(O)c2c(c1)O[C@H](c1cc(O)c(O)c(O)c1)[C@H](O)C2 [EPIGALLOCATECHIN]",
    "GI50": "19.7 µM (inactive)"
  }
]

Q) Consider the compound CCN1CC2=C(OC(N)=C(C#N)C2c2ccc(Cl)cc2)/C(=C/c2ccc(Cl)cc2)C1 (stereo unspecified) . State its measured GI50.
A) 18.2 µM (inactive)

Q) Consider the compound COC(=O)/C=C\COCC1C2CCC(=O)C21 (stereo unspecified) . State its measured GI50.
A) > 25 µM (inactive)

Q) Consider the compound Cc1nn(C(=O)Cc2ccccc2)c2c1C(c1ccc(O)cc1O)SC(=N)N2 (stereo unspecified) . State its measured GI50.
A) > 100 µM (inactive)

---

- System: CAKI-1
- TEST_METHOD_NOTES: NCI tumour cell line growth inhibition, 48 h
Activity calls are given as the source filed them. No stated cut-off is given here; in the data, active = GI50 up to about 1.1 µM and inactive = higher.
Respond only with the outcome that fits, drawn from active, inactive

Worked set:
[
  {
    "MOLECULE": "COC(=O)C1=CO[C@@H](OC2OC(CO)C(O)C(O)C2O)[C@@H]2[C@H](C)[C@@H](O)[C@@H](O)[C@]12O (stereo partly specified)",
    "CLASS_LABEL": "inactive"
  },
  {
    "MOLECULE": "COc1nc(NC2OC(COC(C)=O)C(OC(C)=O)C(OC(C)=O)C2OC(C)=O)c(-c2csc(N)n2)c(=O)n1C (stereo unspecified)",
    "CLASS_LABEL": "inactive"
  },
  {
    "MOLECULE": "CCOC(=O)c1ccc(Nc2nc3ccccc3nc2C(=O)OCC)cc1",
    "CLASS_LABEL": "inactive"
  },
  {
    "MOLECULE": "N#Cc1c(-c2ccc(Cl)cc2)c(C#N)c(=O)n(NS(=O)(=O)c2ccccc2)c1O",
    "CLASS_LABEL": "inactive"
  },
  {
    "MOLECULE": "CC(C)CC(NC(=O)OC(C)(C)C)C(=O)Nc1ccc(Nc2nc(F)nc(-c3c4ccccc4cn3C)n2)cc1 (stereo unspecified)",
    "CLASS_LABEL": "inactive"
  },
  {
    "MOLECULE": "O=C1NC(c2cccc3ccccc23)Nc2ccccc21 (stereo unspecified)",
    "CLASS_LABEL": "active"
  },
  {
    "MOLECULE": "CCCCCCC1NN(C(C)=O)C(CCCCCC)NN1C(C)=O (stereo unspecified)",
    "CLASS_LABEL": "inactive"
  },
  {
    "MOLECULE": "COc1ccc(-c2ncnc(-c3ccc(OC)c(OC)c3)n2)cc1OC",
    "CLASS_LABEL": "inactive"
  },
  {
    "MOLECULE": "O=C1/C(=C/c2ccc([N+](=O)[O-])cc2)Sc2scc(-c3cccc([N+](=O)[O-])c3)[n+]21",
    "CLASS_LABEL": "inactive"
  },
  {
    "MOLECULE": "N#Cc1c(N2CCN(c3ccc([N+](=O)[O-])cc3)CC2)[n+]([O-])c2ccc(-c3ccc([N+](=O)[O-])cc3)cc2[n+]1[O-]",
    "CLASS_LABEL": "inactive"
  }
]

Q) Outcome? O=C1C(Br)=C(Br)C(=O)c2ccc(=O)ccc21
A) inactive

Q) Outcome? NN=C(S)Nc1cccc(Cl)c1
A) inactive

Q) Outcome? Clc1cc(Cl)cc(C2SCc3nc4ccccc4n32)c1 (stereo unspecified)
A) inactive

Q) Outcome? O=[N+]([O-])C(/C(Cl)=C(/Cl)N1CCOCC1)=C1\NCCO1
A) inactive

Q) Outcome? c1ccc(/N=C(\N2CCCCC2)N(CCN2CCCCC2)c2ccccc2)cc1
A) inactive

Q) Outcome? COC(=O)C1=C(C)NC(C)=C([N+](=O)[O-])C1c1cccc(NO)c1 (stereo unspecified)
A) inactive

Q) Outcome? Cc1nc(N)nc(N)c1CCCCc1ccc(N)cc1
A) inactive

---

- Test system: SK-OV-3
- TEST_METHOD_NOTES: NCI tumour cell line growth inhibition, 48 h
Calls of active or inactive are those of the source. Cut-off read from the data, not from the text of the source: active = GI50 up to about 1.1 µM and inactive = higher.
MEASURE: GI50

[
  {
    "COMPOUND": "NS(=O)(=O)c1cc2c(cc1Cl)N=C(CCC(=O)O)NS2(=O)=O",
    "RESULT": "> 100 µM (inactive)"
  }
]

Q) // fetch GI50 for Cc1c(Cl)cc(C(C)(C)C)c(O)c1Cc1c(C)c(Cl)cc(C(C)(C)C)c1O ; system: SK-OV-3
A) 2.98 µM (inactive)

Q) // fetch GI50 for CS/C(=N\C#N)S/C=C/C(=O)c1ccc(Cl)cc1 ; system: SK-OV-3
A) 42.7 µM (inactive)

Q) // fetch GI50 for FC(F)(F)c1ccc(/N=N/N2CCCC2)cc1 ; system: SK-OV-3
A) > 100 µM (inactive)

Q) // fetch GI50 for Cc1n2nc(N)sc2n[n+]1Cc1ccccc1 ; system: SK-OV-3
A) > 100 µM (inactive)

Q) // fetch GI50 for Cc1ccc(C(=O)/C=C(\O)C(=O)NN=C(c2ccccc2)c2ccccc2)cc1 ; system: SK-OV-3
A) > 100 µM (inactive)

Q) // fetch GI50 for Cc1cccc(N2C(=O)/C(=C/c3ccc(N(CCC#N)CCC#N)cc3C)N=C2c2cc([N+](=O)[O-])ccc2Cl)c1 ; system: SK-OV-3
A) > 100 µM (inactive)

Q) // fetch GI50 for O=Cc1cc(O)ccc1Br ; system: SK-OV-3
A) 34.7 µM (inactive)

Q) // fetch GI50 for COC(=O)C(C(=O)C(=O)Nc1ccc(C)cc1C)c1nc2ccc([N+](=O)[O-])cc2nc1O (stereo unspecified) ; system: SK-OV-3
A) > 100 µM (inactive)

Q) // fetch GI50 for CC/C=C/C[C@H](O)[C@H]1C[C@H]2O[C@H](CC(=O)OC)C[C@H]2O1 ; system: SK-OV-3
A) > 100 µM (inactive)

Q) // fetch GI50 for N#CCc1nc(-c2ccccc2)n[nH]1 ; system: SK-OV-3
A) > 100 µM (inactive)
